assay.system: HIV-1 SF162 Env (HIV-1 strain SF162, UniProt P19550 32-847)
test.protocol: cell-based or functional assay
endpoint: IC50 neutralization, 18 hour virus/Ab incubation (µg/mL)
Only the number, expressed in µg/mL, is required.

1456_P20 (PG20) (antibody, human IgG1, kappa, V domains shown) VH: QVRLVQSGPEVKKPGSSVTVSCQASGGTFSSYAFTWVRQAPGQGLEWLGMVTPIFGEAKYSQRFEGRVTITADESTSTTSIELRGLTSEDTAIYYCARDRRAVPIATDNWLDPWGQGTLVTVSS VL: DIQLTQSPSSLSASVGDRVSITCRASQTINNYLNWYQQTPGKAPKLLIYGASNLQNGVPSRFSGSGSGTDFTLTISSLQPEDFATYYCQQSFSTPRTFGQGTRLDIKR yielded IC50 neutralization, 18 hour virus/Ab incubation of 0.0661
